TARGET OR SYSTEM: human TCR(2IAN)/CD3 expressed on HEK293H cells (human)
METHOD SUMMARY: flow cytometry, HEK293H human TCR(2IAN)/CD3 cells

BINDER	MCF at 1 µM / MCF
T0170056G05 (VHH, not shown: small tags and cut ends) VHH: EVQLVESGGGLVQPGGSLRLSCVASGDVHKINFLGWYRQAPGKEREKVAHISIGDQTDYADSAKGRFTISRDESKNMVYLQMNSLKPEDTAVYFCRAFSRIYPYDYWGQGTLVTVSS	86500
T0170061G01 (VHH, not shown: small tags and cut ends) VHH: EVQLVESGGGLVQPGGSLRLSCAASGEIGRINFYRWYRQAPGNQREVVATITIADKTDYADSAKGRFTISRDESRNMVYLQMSSLKPEDTAVYFCHAGSRLYPYDYWGQGTQVTVSS	10000
T0170068G05 (VHH, not shown: small tags and cut ends) VHH: VQLVEESGGGLVQPGGSLRLSCITSGETFKINIWGWYRQAPGKQRELVASLTIGGATNYADSVKGRFTISEDSAKNTVYLQMNSLKPEDTAVYFCNAKSRIYPYDYWGRGTQVTVSS	31200
T0170055A02 (VHH, not shown: small tags and cut ends) VHH: EVQLVESGGGLVQPGGSLRLSCAASGDVHKINILGWYRQAPAKEREMVAHITIGDATDYADSAKGRFTISRDEAKNMVYLQMNSLKPEDTAVYFCRAYSRIYPYNYWGQGTLVTVSS	91200
